target: T1, human CD33 extracellular domain (human, UniProt P20138 18-259); experiment: SPR, Fab captured, 37C;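 note: surface plasmon resonance with Fabs captured on anti-Fab surface, soluble monomeric CD33 as analyte at several concentrations, double-referenced 1:1 model fit, KD as koff/kon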
T1 construct: soluble monomeric ECD; also called human CD33 ECD; hCD33
Classify: Yes when koff is strictly less than 0.01 s⁻¹; No when koff is not.

>  <binder>
ADI-10177 Fab (Fab, V domains shown, Fab fragment; also called Ab2) VH: EVQLVESGGGLVQPGGSLRLSCAASGFTFSSYWMSWVRQAPGKGLEWVANIKQDGSEKYYVDSVKGRFTISRDNAKNSLYLQMNSLRAEDTAVYYCARPLNAGELDVWGQGTMVTVSS VL: DIQMTQSPSTLSASVGDRVTITCRASQSISSWLAWYQQKPGKAPKLLIYEASSLESGVPSRFSGSGSGTEFTLTISSLQPDDFATYYCQQLESYPLTFGGGTKVEIK

>  <qualitative-label>
Yes

$$$$
>  <binder>
ADI-11828 Fab (Fab, V domains shown, Fab fragment; also called Ab27) VH: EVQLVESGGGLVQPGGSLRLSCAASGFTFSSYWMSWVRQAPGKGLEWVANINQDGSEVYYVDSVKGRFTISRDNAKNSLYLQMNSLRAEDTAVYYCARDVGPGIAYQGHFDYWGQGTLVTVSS VL: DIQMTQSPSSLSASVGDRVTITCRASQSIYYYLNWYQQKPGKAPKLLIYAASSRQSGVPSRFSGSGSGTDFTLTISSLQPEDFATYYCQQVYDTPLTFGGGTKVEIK

>  <qualitative-label>
Yes

$$$$
>  <binder>
ADI-11776 Fab (Fab, V domains shown, Fab fragment; also called Ab3; H76) VH: EVQLLESGGGLVQPGGSLRLSCAASGFTFSKYTMSWVRQAPGKGLEWVSAIVGSGESTYFADSVKGRFTISRDNSKNTLYLQMNSLRAEDTAVYYCAREGGPYYDSSGYFVYYGMDVWGQGTTVTVSS VL: DIQMTQSPSTLSASVGDRVTITCRASQSISSWLAWYQQKPGKAPKLLIYKASSLESGVPSRFSGSGSGTEFTLTISSLQPDDFATYYCQQYDDLPTFGGGTKVEIK

>  <qualitative-label>
Yes

$$$$
>  <binder>
ADI-11839 Fab (Fab, V domains shown, Fab fragment; also called Ab28) VH: QVQLVQSGAEVKKPGASVKVSCKASGYTFSNYYMHWVRQAPGQGLEWMGWINPFSGGTRYAQKFQGRVTMTRDTSTSTVYMELSSLRSEDTAVYYCARDVGSSAYYYMDVWGKGTTVTVSS VL: DIQMTQSPSSVSASVGDRVTITCEASKGISSWLAWYQQKPGKAPKLLIYAASDLQSGVPSRFSGSGSGTDFTLTISSLQPEDFATYYCQQAFLFPPTFGGGTKVEIK

>  <qualitative-label>
No

$$$$
>  <binder>
ADI-10161 Fab (Fab, V domains shown, Fab fragment; also called Ab16) VH: EVQLVESGGGLVQPGGSLRLSCAASGFTFSSYWMSWVRQAPGKGLEWVANINQDGSEKYYVDSVKGRFTISRDNAKNSLYLQMNSLRAEDTAVYYCAREGGDSWYHAFDIWGQGTMVTVSS VL: DIQMTQSPSSVSASVGDRVTITCRASQGISSWLAWYQQKPGKAPKLLIYAASNLQSGVPSRFSGSGSGTDFTLTISSLQPEDFATYYCQQKLSLPLTFGGGTKVEIK

>  <qualitative-label>
No

$$$$
>  <binder>
ADI-10157 Fab (Fab, V domains shown, Fab fragment; also called Ab13) VH: QVQLQESGPGLVKPSETLSLTCTVSGGSISSYYWSWIRQPPGKGLEWIGSIYYSGSTNYNPSLKSRVTISVDTSKNQFSLKLSSVTAADTAVYYCARVGGVYSTIETYGMDVWGQGTTVTVSS VL: EIVMTQSPATLSVSPGERATLSCRASQSVSSNLAWYQQKPGQAPRLLIYGASTRATGIPARFSGSGSGTEFTLTISSLQSEDFAVYYCQQYTVYPPTFGGGTKVEIK

>  <qualitative-label>
Yes

$$$$
